# experimentalSystem: Factor X (FX) (Homo sapiens, UniProt P00742)
# Construct: gene F10; zymogen factor X, two-chain; source and preparation only in supplement; with Coagulation factor X (factor X heavy chain)
# Sequence (P00742 41-179): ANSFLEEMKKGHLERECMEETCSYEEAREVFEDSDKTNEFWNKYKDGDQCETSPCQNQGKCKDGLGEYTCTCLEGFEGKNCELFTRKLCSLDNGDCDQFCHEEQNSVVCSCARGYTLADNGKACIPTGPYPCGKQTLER
# Sequence (P00742 183-488): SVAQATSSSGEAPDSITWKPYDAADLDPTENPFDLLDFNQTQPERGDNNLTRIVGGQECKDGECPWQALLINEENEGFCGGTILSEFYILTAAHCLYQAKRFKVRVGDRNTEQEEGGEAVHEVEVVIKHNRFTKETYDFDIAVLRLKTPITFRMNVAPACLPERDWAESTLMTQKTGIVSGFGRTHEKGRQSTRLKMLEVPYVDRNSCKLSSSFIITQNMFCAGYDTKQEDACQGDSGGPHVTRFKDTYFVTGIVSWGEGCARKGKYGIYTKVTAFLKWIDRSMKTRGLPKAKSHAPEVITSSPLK
# measurementNotes: surface plasmon resonance, lipid in nanodiscs, steady state
# Type: binding
# conditions: read-out: Kd (μM) / 40% PS 60% PC
measuredEndpoint: Kd (µM)

{"smilesData": "CCCCCCCC/C=C\\CCCCCCCC(=O)O[C@H](COC(=O)CCCCCCCCCCCCCCC)COP(=O)(O)OC[C@H](N)C(=O)O", "experimentalSystem": "Factor X (FX) (Homo sapiens, UniProt P00742)", "displayUnit": "µM", "assayResult": 1.33}
